# measuredTarget: dGA (Homo sapiens, UniProt P10636)
# Sequence (P10636 614-707): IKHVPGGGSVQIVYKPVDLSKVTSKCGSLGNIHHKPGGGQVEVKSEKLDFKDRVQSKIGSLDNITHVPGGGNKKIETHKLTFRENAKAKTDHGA
# experimentalDetails: Biacore X100 SPR, scAb captured via anti-HuCk, dGA as analyte
# Type: binding
# experimentalSetup: dissociation rate
measuredParameter: Kd (s⁻¹)
Answers are plain numbers, in s⁻¹.

### Prompt Could you tell me which Kd is on file for CE2: anti-tau clone referred to as CE2 or E1B8, SEQ ID NO: 366 (protein, CE2/E1B8 amino acid sequence) scFv: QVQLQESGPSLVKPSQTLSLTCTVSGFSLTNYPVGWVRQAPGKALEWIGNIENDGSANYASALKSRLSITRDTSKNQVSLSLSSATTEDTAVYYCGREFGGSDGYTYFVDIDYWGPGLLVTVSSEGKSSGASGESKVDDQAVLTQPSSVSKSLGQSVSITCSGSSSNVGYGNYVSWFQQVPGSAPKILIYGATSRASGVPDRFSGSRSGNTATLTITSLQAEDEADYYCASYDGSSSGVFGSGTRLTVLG ?
### Response 0.00242
